# Test system: DMS-273
# Experiment Description: NCI tumour cell line growth inhibition, 48 h
Calls of active or inactive are those of the source. No stated cut-off is given here; in the data, active = GI50 up to about 1.1 µM and inactive = higher.
Your response should consist of one outcome taken from active, inactive

Exercise: Tell me the recorded outcome of this test for COc1ccc(OC(=O)CC2Cc3cc(OC)c(OC)c(OC)c3-c3ccc(SC)c(=O)cc32)cc1 (configuration not stated) .
Solution: active

Exercise: Dear colleague, could you share the recorded outcome for COc1cc2c3c(c1OC)/C(=N/OS(=O)(=O)c1ccc(C)cc1)CC3N(S(=O)(=O)c1ccc(C)cc1)CC2 (configuration not stated) when you have a moment?
Solution: inactive

Exercise: Hi team, can someone confirm the assay call for CCOC(=O)C(C)c1c(C(=O)c2ccc(C)nc2)c2ccccc2n1C (configuration not stated) ?
Solution: inactive

Exercise: // param item: O=C(/C=C/c1ccccc1O)c1ccccc1Cl ; yields the recorded call
Solution: inactive

Exercise: Identify the outcome logged in this assay for the compound shown: c1ccc2c(CN3CCC(C4CCN(Cc5cccc6ccccc56)CC4)CC3)cccc2c1
Solution: inactive

Exercise: Dear colleague, could you share the recorded outcome for Cc1nc2c(n1CCN(C)C)C(=O)c1ccccc1C2=O when you have a moment?
Solution: inactive

Exercise: Query: recorded result category for CNS(=O)(=O)NNS(=O)(=O)c1ccccc1 in this test
Solution: inactive

Exercise: Hi, do you know how CNC=O came out in this test?
Solution: inactive

Exercise: Test call for this compound, please: O=P1(NCCCl)OCCC(OO)N1CCCl (configuration not stated)
Solution: inactive

Exercise: What did this assay record as the result for O=C1/C(=C/c2ccc(Cl)cc2)CCC1CN1CCOCC1 (configuration not stated) ?
Solution: inactive

Exercise: Which outcome was entered for the compound CCOC(=O)C1=C(NC)OC/C1=N\NC(=O)c1ccccc1O in this test?
Solution: inactive

Exercise: Fill in: this test's call for CC(=O)Nc1ccc(-c2nnc(SCC(=O)Nc3ccc(Cl)cc3)o2)cc1 is ___
Solution: inactive
